Each entry below lists one item and its recorded viability value.
- PROCEDURE_DETAILS: Cytotoxicity against […] cells assessed as cell viability by MTT assay relative to control
- Type: cell-based, BV-2
- Set-up: concentration or dose not given beside the values
- TEST_SETTINGS: Mus musculus, read-out: Activity
Please state the figure in %; there is no need to write the unit.

According to the records, this molecule "C=C(C(=O)O)[C@@H]1CC[C@@]2(C)[C@@H](OC(=O)C(=C)[C@@H]3CC[C@H](C)[C@@H]4CC(=O)C(C)=C4C3)C=C(C(C)=O)[C@@]2(O)C1" displays viability of 95.4

According to the records, this molecule "C=C(C(=O)O)[C@@H]1CC[C@H](C)C23C[C@]4(C(=O)O[C@]56C[C@H]4CC[C@H](C)[C@@H]5CC[C@]6(C)O)[C@@H](C(C)=C2C1)[C@@H]3O" displays viability of 91.8

According to the records, this molecule "C=C(C(=O)O)[C@@H]1CC[C@H](C)C2=C(C1)[C@]1(C)C[C@H]2C[C@@]1(C(=O)O)[C@@H]1CC[C@H](C)[C@@H]2CC(=O)C(C)=C2C1" displays viability of 90.7

* * *

Each entry below lists one item and its recorded viability value.
- PROCEDURE_DETAILS: Cytotoxicity against […] cells assessed as cell viability by MTT assay relative to control
- Assay type: cell-based, BV-2
- Parameters: concentration or dose not given beside the values
- TEST_SETTINGS: Mus musculus, read-out: Activity
Report as: number unit

A selection of reference data follows.
>  <SMILES>
C=C(C(=O)O)[C@@H]1CC[C@]2(C)[C@@H](C1)C(C)=C[C@H]1[C@@H]2C[C@]1(C(=O)O)[C@@H]1CC[C@H](C)[C@@H]2CC(=O)C(C)=C2C1

>  <RECORDED_METRIC>
viability

>  <REPORTED>
91.1%

$$$$
>  <SMILES>
C=C(C(=O)O)[C@@H]1CC[C@H](C)[C@]23C[C@H](C(C)=C2C1)[C@]1(C3)C(=O)O[C@]23C[C@H]1CC[C@H](C)[C@@H]2CC[C@]3(C)O

>  <RECORDED_METRIC>
viability

>  <REPORTED>
89.1%

$$$$

According to the records, this compound "C=C(C(=O)O)[C@@H]1CC[C@H](C)C2=C[C@@H]3[C@@]4(CC2(C1)[C@@]3(C)O)C(=O)O[C@]12C[C@H]4CC[C@H](C)[C@@H]1CC[C@]2(C)O" displays viability of 77.3%

According to the records, this compound "C=C(C(=O)O)[C@@H]1CC[C@H](C)C2=C(C1)[C@@]1(C)C[C@@H]2[C@](C(=O)O)([C@@H]2CC[C@H](C)[C@@H]3CC(=O)C(C)=C3C2)C1" displays viability of 90.7%

* * *

- PROCEDURE_DETAILS: Cytotoxicity against […] cells assessed as cell viability by MTT assay relative to control
- Format: cell-based, BV-2
- Parameters: concentration or dose not given beside the values
- TEST_SETTINGS: Mus musculus, read-out: Activity
RECORDED_METRIC: viability (%)
Please state the figure in %; there is no need to write the unit.

A selection of reference data follows.
>  <SMILES>
C=C(C(=O)O)[C@@H]1CC[C@H](C)C2=C(C1)[C@]1(C)C[C@H]2C[C@@]1(C(=O)O)[C@@H]1CC[C@H](C)[C@@H]2CC(=O)C(C)=C2[C@H]1O

>  <UNITS_OF_MEASURE>
%

>  <viability>
91.1

$$$$
>  <SMILES>
C=C(C(=O)O)[C@@H]1CC[C@@]2(C)C=C[C@@H]3[C@@](C)(C[C@@]3(C(=O)O)[C@@H]3CC[C@H](C)[C@@H]4CC(=O)C(C)=C4C3)[C@@H]2C1

>  <UNITS_OF_MEASURE>
%

>  <viability>
95.7

$$$$
>  <SMILES>
C=C(C(=O)O)[C@@H]1CC[C@]2(C)C(=C(C)[C@@H](O)[C@H]3[C@@H]2C[C@]3(C(=O)O)[C@@H]2CC[C@H](C)[C@@H]3CC(=O)C(C)=C3C2)C1

>  <UNITS_OF_MEASURE>
%

>  <viability>
94.6

$$$$
>  <SMILES>
C=C(C(=O)O)[C@@H]1CC[C@]2(C)[C@@H](C1)C(C)=C[C@@H](OC(=O)C(=C)[C@@H]1CC[C@H](C)[C@@H]3CC(=O)C(C)=C3C1)[C@@H]2O

>  <UNITS_OF_MEASURE>
%

>  <viability>
96.7

$$$$
>  <SMILES>
O=c1c(O)c(-c2ccc(O)c(O)c2)oc2cc(O)cc(O)c12

>  <UNITS_OF_MEASURE>
%

>  <viability>
99.5

$$$$

// switching to the query compound
According to the records, this compound "C=C(C(=O)O)[C@@H]1CC[C@@]2(C)C[C@@H](OC(=O)C(=C)[C@@H]3CC[C@H](C)[C@@H]4CC(=O)C(C)=C4C3)C[C@@](C)(O)[C@@H]2C1" displays viability of 97.2
